These data points were gathered from PubChem BioAssay (NCI).

test system: ACHN renal; assay: NCI tumour cell line growth inhibition, 48 h
Hi, to clarify the labels: T covers TGI from 30 µM upward, F covers anything below 30 µM.

>>> class_label("Cc1cc(Nc2nc(N3CCOCC3)nc3ccccc23)n[nH]1")
"F"
>>> class_label("O=C(Nc1cccc(-c2nc3ccccc3[nH]2)c1)c1cccc(NC(=O)c2ccco2)c1")
"F"
>>> class_label("CO[C@@]12C[C@@H](CNC(=O)c3cc(Br)c[nH]3)O[C@@H]1NC(=O)N2")
"T"
>>> class_label("CCOC(=O)c1ccc2[nH]c(Cc3[nH]c4ccc(C(=O)OCC)cc4c3C)c(C)c2c1")
"F"
>>> class_label("C=C(CO)[C@H]1CC/C(C)=C/CC/C(C)=C/C/C=C(\\C)[C@H](O)C1")
"T"
>>> class_label("CCSc1nc(=S)[nH]c2[nH]ncc12")
"T"
>>> class_label("c1ccc2c(NCCCCCCCCNc3cccc4ccccc34)cccc2c1")
"T"
>>> class_label("COC1CCC(OS(C)(=O)=O)CO1 (centres undefined)")
"T"
>>> class_label("CCCN1C(=O)/C(=C/c2ccc(O)cc2)SC1=Nc1ccccc1")
"T"
>>> class_label("c1cc2[se][se]c3c4cccc5[se][se]c(c(c1)c23)c54")
"T"
>>> class_label("COc1ccc(OC)c2sc(N3C(=O)/C(=C/c4ccccc4S)N=C3c3ccccc3)nc12")
"T"
>>> class_label("C[C@]12CC[C@H]3[C@@H](CC=C4C[C@@H](O)CC[C@@]43C)[C@@H]1C/C(=C\\c1cccc(OCCCn3ccnc3)c1)[C@@H]2O")
"T"
>>> class_label("CCN(CC)/C(=C\\Cl)Nc1ccccn1")
"T"
>>> class_label("COc1cc(/C=C2\\CCC(C)c3c2nc(N)c(C#N)c3-c2cc(OC)c(OC)c(OC)c2)cc(OC)c1OC (centres undefined)")
"T"
>>> class_label("Cc1nc2c(n1CCCl)C(=O)c1ccccc1C2=O")
"T"
>>> class_label("CC1=CC[C@@]2(C)[C@@H]([C@@H]1C)[C@H]1CC[C@@H]3[C@@]4(C)CC[C@H](O)C(C)(C)[C@@H]4CC[C@@]3(C)[C@]1(C)C[C@@H]2O")
"T"
>>> class_label("CN1CCN(CCCOc2ccc3ncnc(Nc4ccc(Oc5cccc(C(F)(F)F)c5)c(Cl)c4)c3c2)CC1")
"F"

---

test system: RXF-631 renal; experiment: NCI tumour cell line growth inhibition, 48 h
Hi, to clarify the labels: label 1 covers TGI from 10 µM upward, label 0 covers anything below 10 µM.

>>> class_label("CCC[CH2][Sn]([CH2]CCC)([O]C(=O)c1cccc(F)c1F)[O][Sn]([CH2]CCC)([CH2]CCC)[O]C(=O)c1cccc(F)c1F")
"label 0"
>>> class_label("CC(=O)C1=C(O)C2(O)C(=O)c3c(c(C)c4ccc(C)c(O)c4c3O)CC2C(N)C1=O (stereo not given)")
"label 1"
>>> class_label("CC(=O)Oc1cc2c(=O)oc3c(OC(C)=O)c(OC(C)=O)c(OC(C)=O)c4c(=O)oc(c1OC(C)=O)c2c34")
"label 1"
>>> class_label("CCCCC1(OC(=O)CCC(=O)O)CCC2(CCC(C)C(C/C=C(C)/C=C/C(O)C(C)/C=C/C(=O)O)O2)OC1CC/C(C)=C/C(=O)O (stereo not given)")
"label 0"
>>> class_label("CCN(CC)/C(=C\\Cl)Nc1ccccn1")
"label 1"
>>> class_label("N#Cc1c(C(N)=O)ncn1Cc1ccccc1")
"label 1"
>>> class_label("CO/C=C/c1cc2c(cc1C(OC)OC)OCO2")
"label 1"
>>> class_label("C=CCOCCCC(=O)C(=[N+]=[N-])C(=O)OC")
"label 1"
>>> class_label("c1ccc2c(NCCCCCCCCNc3cccc4ccccc34)cccc2c1")
"label 1"
>>> class_label("BrC12C3C4C5C(C(C43)C13OCCO3)C52 (stereo not given)")
"label 1"
